Biological target: uPA (recombinant) (Homo sapiens)
Construct: purchased Nodia
Assay: uPA inhibition, chromogenic substrate Biophen CS-61(44)
Assay type: biochemical
Readings of IC50 for the listed molecules
ENDPOINT LABEL: IC50

INSERT INTO measurements (molecule, result) VALUES
  ('CCCCCC(=O)NCCOC(=O)NC(c1ccc(NC(=N)N)cc1)P(=O)(Oc1ccccc1)Oc1ccccc1 (stereo not drawn)', '10 to 250 µM'),
  ('N=C(N)Nc1ccc(C(NC(=O)OCCCC(F)(F)F)P(=O)(Oc2ccccc2)Oc2ccccc2)cc1 (stereo not drawn)', '2.5 to 10 µM'),
  ('COCCOC(=O)NC(c1ccc(NC(=N)N)cc1)P(=O)(Oc1ccccc1)Oc1ccccc1 (stereo not drawn) [Compound 29, 2,2,2-trifluoroacetate]', '10 to 250 µM'),
  ('COCCOCCOCCOC(=O)NC(c1ccc(NC(=N)N)cc1)P(=O)(Oc1ccccc1)Oc1ccccc1 (stereo not drawn)', '2.5 to 10 µM'),
  ('C#CCOCCOCCOC(=O)NC(c1ccc(NC(=N)N)cc1)P(=O)(Oc1ccccc1)Oc1ccccc1.O=C(O)C(F)(F)F (stereo not drawn) [Compound 27, 2,2,2-trifluoroacetate]', '2.5 to 10 µM'),
  ('COCCOCCOC(=O)NC(c1ccc(NC(=N)N)cc1)P(=O)(Oc1ccc(NC(C)=O)cc1)Oc1ccc(NC(C)=O)cc1 (stereo not drawn)', '2.5 to 10 µM'),
  ('C#CCOCCOCCOC(=O)NC(Cc1ccc(NC(=N)N)cc1)P(=O)(Oc1ccccc1)Oc1ccccc1 (stereo not drawn) [UPA2, reference compound]', '< 0.1 µM'),
  ('N=C(N)Nc1ccc(C(NC(=O)OCc2c(F)c(F)c(F)c(F)c2F)P(=O)(Oc2ccccc2)Oc2ccccc2)cc1 (stereo not drawn)', '2.5 to 10 µM'),
  ('CSCCOC(=O)NC(c1ccc(NC(=N)N)cc1)P(=O)(Oc1ccccc1)Oc1ccccc1 (stereo not drawn)', '2.5 to 10 µM'),
  ('CCCCCCOC(=O)NC(c1ccc(NC(=N)N)cc1)P(=O)(Oc1ccccc1)Oc1ccccc1 (stereo not drawn)', '2.5 to 10 µM'),
  ('N=C(N)Nc1ccc(C(NC(=O)OCCOCCOCc2cn(CCOCCOCCOCCNC(=O)CN3CCN(CC(=O)O)CCN(CC(=O)O)CCN(CC(=O)O)CC3)nn2)P(=O)(Oc2ccccc2)Oc2ccccc2)cc1 (stereo not drawn)', '2.5 to 10 µM'),
  ('N=C(N)Nc1ccc(C(NC(=O)OCc2ccccc2)P(=O)(Oc2ccccc2)Oc2ccccc2)cc1 (stereo not drawn) [Compound 5a, 2,2,2-trifluoroacetate, reference compound]', '2.5 to 10 µM');

---

Target: KLK8 (human) (Homo sapiens, UniProt O60259)
Construct: purchased Viktor Magdolen, TUMunich (TUM), supplied by an academic laboratory
Sequence (O60259 33-260): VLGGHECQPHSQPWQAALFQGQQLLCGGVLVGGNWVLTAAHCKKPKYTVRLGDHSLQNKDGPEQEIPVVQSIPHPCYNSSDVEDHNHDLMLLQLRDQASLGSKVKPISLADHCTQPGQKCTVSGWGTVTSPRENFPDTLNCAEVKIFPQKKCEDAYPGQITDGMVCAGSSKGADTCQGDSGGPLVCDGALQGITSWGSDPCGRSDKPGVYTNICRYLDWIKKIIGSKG
Assay: KLK8 inhibition, fluorogenic substrate Boc-Val-Pro-Arg-AMC
Type: biochemical
ENDPOINT LABEL: IC50

INSERT INTO results (compound, target_entity, result) VALUES
  ('N=C(N)Nc1ccc(C(NC(=O)OCc2c(F)c(F)c(F)c(F)c2F)P(=O)(Oc2ccccc2)Oc2ccccc2)cc1 (centres unmarked)', 'KLK8 (human) (Homo sapiens, UniProt O60259)', '1000 to 2500 nM'),
  ('N=C(N)Nc1ccc(C(NC(=O)OCCCC(F)(F)F)P(=O)(Oc2ccccc2)Oc2ccccc2)cc1 (centres unmarked)', 'KLK8 (human) (Homo sapiens, UniProt O60259)', '2500 to 10000 nM'),
  ('CCCCCC(=O)NCCOC(=O)NC(c1ccc(NC(=N)N)cc1)P(=O)(Oc1ccccc1)Oc1ccccc1 (centres unmarked)', 'KLK8 (human) (Homo sapiens, UniProt O60259)', '10000 to 250000 nM'),
  ('COCCOCCOC(=O)NC(c1ccc(NC(=N)N)cc1)P(=O)(Oc1ccc(NC(C)=O)cc1)Oc1ccc(NC(C)=O)cc1 (centres unmarked)', 'KLK8 (human) (Homo sapiens, UniProt O60259)', '1000 to 2500 nM'),
  ('N=C(N)Nc1ccc(C(NC(=O)OCc2ccccc2)P(=O)(Oc2ccccc2)Oc2ccccc2)cc1 (centres unmarked) [Compound 5a, 2,2,2-trifluoroacetate, reference compound]', 'KLK8 (human) (Homo sapiens, UniProt O60259)', '1000 to 2500 nM'),
  ('COCCOC(=O)NC(c1ccc(NC(=N)N)cc1)P(=O)(Oc1ccccc1)Oc1ccccc1 (centres unmarked) [Compound 29, 2,2,2-trifluoroacetate]', 'KLK8 (human) (Homo sapiens, UniProt O60259)', '10000 to 250000 nM'),
  ('CCCCCCOC(=O)NC(c1ccc(NC(=N)N)cc1)P(=O)(Oc1ccccc1)Oc1ccccc1 (centres unmarked)', 'KLK8 (human) (Homo sapiens, UniProt O60259)', '2500 to 10000 nM'),
  ('N=C(N)Nc1ccc(CC(NC(=O)OCc2ccccc2)P(=O)(Oc2ccccc2)Oc2ccccc2)cc1 (centres unmarked) [UPA1, reference compound]', 'KLK8 (human) (Homo sapiens, UniProt O60259)', '< 100 nM'),
  ('COCCOCCOCCOC(=O)NC(c1ccc(NC(=N)N)cc1)P(=O)(Oc1ccccc1)Oc1ccccc1 (centres unmarked)', 'KLK8 (human) (Homo sapiens, UniProt O60259)', '1000 to 2500 nM'),
  ('CSCCOC(=O)NC(c1ccc(NC(=N)N)cc1)P(=O)(Oc1ccccc1)Oc1ccccc1 (centres unmarked)', 'KLK8 (human) (Homo sapiens, UniProt O60259)', '1000 to 2500 nM'),
  ('C#CCOCCOCCOC(=O)NC(c1ccc(NC(=N)N)cc1)P(=O)(Oc1ccccc1)Oc1ccccc1.O=C(O)C(F)(F)F (centres unmarked) [Compound 27, 2,2,2-trifluoroacetate]', 'KLK8 (human) (Homo sapiens, UniProt O60259)', '10000 to 250000 nM');
